B1: ANKRD40 (parent)
chain: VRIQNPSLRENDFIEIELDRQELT

variants of: B1; experiment: protein stability index of a GFP-peptide fusion (GPS, HEK-293T) (PSI 1-6); higher = more stable; conditions: c terminus: a fixed tail appended;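 note: lentivirally expressed fusions sorted by FACS into six bins by GFP to DsRed ratio, PSI derived from sequencing read proportions per bin multiplied by bin number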
# cutoff 2 applies to protein stability index; >= gives TRUE, < gives FALSE

| seq | label-class |
| --- | --- |
| VRIQNPSLRENYFIEIELDRQELT [D12Y] | FALSE |
| VRIQNPSLRGNDFIEIELDRQELT [E10G] | FALSE |
| VRIQNPSLRENDFIEIELDRTELT [Q21T] | TRUE |
| VRIQNPSLRENDFIESELDRQELT [I16S] | TRUE |
| VRIQCPSLRENDFIEIELDRQELT [N5C] | TRUE |
| VRIQNPSLRENDFIEIELDRIELT [Q21I] | FALSE |
| VRCQNPSLRENDFIEIELDRQELT [I3C] | TRUE |
| VRIQFPSLRENDFIEIELDRQELT [N5F] | TRUE |
| VRIQNPSLRENDFIEIEPDRQELT [L18P] | TRUE |
| VRIQMPSLRENDFIEIELDRQELT [N5M] | TRUE |
| VRIQNPSLRENDFIQIELDRQELT [E15Q] | TRUE |
